What EC50 was measured for each of the following?
Biological target: T1, human KLB on CHOK1-hKLB cells (human, UniProt Q86Z14 1-1044)
T1 construct: whole, on cells; also called human KLB antigen; β-Klotho
T1 sequence (looked up): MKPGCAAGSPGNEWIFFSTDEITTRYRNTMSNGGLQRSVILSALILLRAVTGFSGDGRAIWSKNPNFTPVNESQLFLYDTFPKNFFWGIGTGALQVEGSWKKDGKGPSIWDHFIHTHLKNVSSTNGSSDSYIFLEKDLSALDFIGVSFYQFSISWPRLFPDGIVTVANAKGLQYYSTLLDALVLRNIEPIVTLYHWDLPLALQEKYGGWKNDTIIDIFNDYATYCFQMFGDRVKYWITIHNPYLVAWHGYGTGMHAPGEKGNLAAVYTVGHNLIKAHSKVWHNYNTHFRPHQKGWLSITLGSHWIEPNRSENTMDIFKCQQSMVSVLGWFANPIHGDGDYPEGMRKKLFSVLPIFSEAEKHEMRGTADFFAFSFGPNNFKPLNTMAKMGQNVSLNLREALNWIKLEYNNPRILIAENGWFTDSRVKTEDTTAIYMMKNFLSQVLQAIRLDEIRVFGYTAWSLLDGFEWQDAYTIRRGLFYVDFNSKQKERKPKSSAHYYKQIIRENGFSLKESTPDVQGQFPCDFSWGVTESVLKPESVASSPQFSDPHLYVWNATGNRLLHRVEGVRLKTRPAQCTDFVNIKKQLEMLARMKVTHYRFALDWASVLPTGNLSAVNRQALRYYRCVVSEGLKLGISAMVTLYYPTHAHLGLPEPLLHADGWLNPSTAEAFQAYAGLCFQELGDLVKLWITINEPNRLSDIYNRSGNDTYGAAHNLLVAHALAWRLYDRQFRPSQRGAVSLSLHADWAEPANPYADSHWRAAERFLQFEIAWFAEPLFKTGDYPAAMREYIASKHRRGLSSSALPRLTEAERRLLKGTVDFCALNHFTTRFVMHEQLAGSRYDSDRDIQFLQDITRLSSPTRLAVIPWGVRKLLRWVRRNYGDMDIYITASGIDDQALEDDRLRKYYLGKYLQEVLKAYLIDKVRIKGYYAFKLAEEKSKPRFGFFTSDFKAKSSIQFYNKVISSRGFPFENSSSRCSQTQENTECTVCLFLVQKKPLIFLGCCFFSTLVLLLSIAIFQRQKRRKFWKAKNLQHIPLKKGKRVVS
Test: flow cytometry on CHOK1-hKLB cells
Hi, when you answer, please include the unit after the number. Thanks!

Provide one value: measured EC50 of hAb99-16 (antibody, human IgG1, kappa, L234A L235A, V domains shown, humanized mAb-99: hAb99VH2-NV + hAb99VL2; human IgG1 (L234A, L235A) / kappa constant regions) VH: EVQLVQSGAEVKKPGASVKVSCKASGYTFTNYGINWVRQAPGQGLEWMGYIYIGNVDIEYNAKFKGRVTITSDTSASTAYMELSSLRSEDTAVYYCARGRGLGHFDVWGQGTTVTVSS VL: DIQMTQSPSSLSASVGDRVTITCRASKSISKFLAWFQQKPGKTNKLLIYSGSTLQSGVPSRFSGSGSGTDFTLTISSLQPEDFATYYCQQHNEYPWTFGGGTKVEIKR
0.47 nM

Kindly consider the entry below.
Provide one value: measured EC50 of hAb99-17 (antibody, human IgG1, kappa, L234A L235A, V domains shown, humanized mAb-99: hAb99VH2-NL + hAb99VL2; human IgG1 (L234A, L235A) / kappa constant regions) VH: EVQLVQSGAEVKKPGASVKVSCKASGYTFTNYGINWVRQAPGQGLEWMGYIYIGNLDIEYNAKFKGRVTITSDTSASTAYMELSSLRSEDTAVYYCARGRGLGHFDVWGQGTTVTVSS VL: DIQMTQSPSSLSASVGDRVTITCRASKSISKFLAWFQQKPGKTNKLLIYSGSTLQSGVPSRFSGSGSGTDFTLTISSLQPEDFATYYCQQHNEYPWTFGGGTKVEIKR
0.43 nM
